Sourced from ChEMBL document CHEMBL4270660

tested.on: Sodium-dependent dopamine transporter (Homo sapiens)
Sequence (Q01959 whole entry): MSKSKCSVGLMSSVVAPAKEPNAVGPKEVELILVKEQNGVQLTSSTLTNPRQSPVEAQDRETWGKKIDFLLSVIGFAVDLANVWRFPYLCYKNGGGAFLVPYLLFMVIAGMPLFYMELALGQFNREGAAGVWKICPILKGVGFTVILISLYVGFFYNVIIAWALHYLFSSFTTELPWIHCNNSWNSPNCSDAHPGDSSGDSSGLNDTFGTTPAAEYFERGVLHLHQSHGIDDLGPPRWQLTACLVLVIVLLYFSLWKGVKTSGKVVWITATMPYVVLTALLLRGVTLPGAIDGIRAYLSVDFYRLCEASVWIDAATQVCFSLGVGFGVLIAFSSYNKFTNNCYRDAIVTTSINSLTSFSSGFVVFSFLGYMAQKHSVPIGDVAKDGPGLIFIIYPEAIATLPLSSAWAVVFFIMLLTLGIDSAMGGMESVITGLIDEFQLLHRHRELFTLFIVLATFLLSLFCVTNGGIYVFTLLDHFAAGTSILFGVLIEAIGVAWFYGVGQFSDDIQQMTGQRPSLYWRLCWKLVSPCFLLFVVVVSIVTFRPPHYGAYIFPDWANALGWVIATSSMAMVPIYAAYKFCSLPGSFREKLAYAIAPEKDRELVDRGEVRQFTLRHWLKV
experiment: Inhibition of [3H]dopamine uptake at human DAT expressed in HEK293 cells at 1 uM after 15 to 20 mins by microbeta scintillation counting method
Type: cell-based
inhibition for assorted compounds

> print(dat)
                         chemical.structure  result
1  FC(F)(F)c1ccc(N2CCN(CCOc3ccc4ccccc4c3)CC2)cc1   31.3%

Now for a further compound.
Inquiry: # return recorded inhibition for entry "Cc1cccc(C)c1N1CCN(CCOc2ccc3ccccc3c2)CC1"
Reply text: 19%

====

tested.on: Sodium-dependent serotonin transporter (Homo sapiens, UniProt P31645)
Sequence (P31645 whole entry, looked up): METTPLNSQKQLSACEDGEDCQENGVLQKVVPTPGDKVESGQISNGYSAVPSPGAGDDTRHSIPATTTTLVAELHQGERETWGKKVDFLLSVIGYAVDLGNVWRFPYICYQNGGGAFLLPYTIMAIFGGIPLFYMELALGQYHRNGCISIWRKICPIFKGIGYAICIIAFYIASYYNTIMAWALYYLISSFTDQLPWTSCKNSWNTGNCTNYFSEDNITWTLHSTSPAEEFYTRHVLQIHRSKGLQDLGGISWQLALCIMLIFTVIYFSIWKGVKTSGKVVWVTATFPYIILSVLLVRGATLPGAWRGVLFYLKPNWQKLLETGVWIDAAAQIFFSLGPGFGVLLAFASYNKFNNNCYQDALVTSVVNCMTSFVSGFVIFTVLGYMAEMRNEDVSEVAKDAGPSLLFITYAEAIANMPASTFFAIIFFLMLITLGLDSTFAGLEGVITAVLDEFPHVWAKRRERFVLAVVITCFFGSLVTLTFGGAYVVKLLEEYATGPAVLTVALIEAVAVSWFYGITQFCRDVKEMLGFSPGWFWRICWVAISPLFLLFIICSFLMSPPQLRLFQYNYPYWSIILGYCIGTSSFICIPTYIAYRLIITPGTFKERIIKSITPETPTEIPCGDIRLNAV
assay.setup: HEK293, at 1 µM
Description: Inhibition of [3H]serotonin uptake at human SERT expressed in HEK293 cells at 1 uM after 15 to 20 mins by microbeta scintillation counting method
measured.endpoint: inhibition (%)
Respond with the bare value in %.

Example entries and their recorded answers appear below.
> print(dat)
                         chemical.structure  unit.info  result.number
1   c1ccc(CC2CCN(CCCOc3ccc4ccccc4c3)CC2)cc1          %             51
2  Clc1ccc(N2CCN(CCCOc3ccc4ccccc4c3)CC2)cc1          %           28.4
3   c1ccc(N2CCN(CCCCOc3ccc4ccccc4c3)CC2)nc1          %           45.3

Inquiry: # return recorded inhibition for entry "Fc1ccc(N2CCN(CCCCOc3ccc4ccccc4c3)CC2)cc1"
Reply text: 71

Inquiry: # return recorded inhibition for entry "Brc1ccc(N2CCN(CCCOc3ccc4ccccc4c3)CC2)cc1"
Reply text: 54.9

Inquiry: # return recorded inhibition for entry "Clc1cccc(N2CCN(CCOc3ccc4ccccc4c3)CC2)c1"
Reply text: 85.3
